This collection of values is drawn from ChEMBL document CHEMBL1177739.

Molecular target: Aurora kinase A (Homo sapiens, UniProt O14965)
Sequence (O14965 whole entry): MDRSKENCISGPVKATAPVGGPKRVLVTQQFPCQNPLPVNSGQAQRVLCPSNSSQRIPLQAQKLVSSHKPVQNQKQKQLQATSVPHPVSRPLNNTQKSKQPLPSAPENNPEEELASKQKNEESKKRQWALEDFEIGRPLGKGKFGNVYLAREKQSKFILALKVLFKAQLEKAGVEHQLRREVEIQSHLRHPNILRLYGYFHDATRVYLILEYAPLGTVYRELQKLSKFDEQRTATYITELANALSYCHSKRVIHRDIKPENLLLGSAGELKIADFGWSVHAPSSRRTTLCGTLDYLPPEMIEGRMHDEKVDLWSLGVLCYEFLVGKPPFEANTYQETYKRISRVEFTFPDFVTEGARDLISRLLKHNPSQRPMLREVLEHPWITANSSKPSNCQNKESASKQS
pIC50: −log10 of the molar value.
observable: pIC50

Can you look up the measured pIC50 of "CCOC(=O)CCNc1ncnc2oc(-c3ccccc3)c(-c3ccccc3)c12" for me?
6.10

Can you look up the measured pIC50 of "C[C@@H](O)CNc1ncnc2oc(-c3ccccc3)c(-c3ccccc3)c12" for me?
6.01

Can you look up the measured pIC50 of "OC1CCN(c2ncnc3oc(-c4ccccc4)c(-c4ccccc4)c23)CC1" for me?
6.09

P: Nc1ccc(CNc2ncnc3oc(-c4ccccc4)c(-c4ccccc4)c23)cc1
Q: CC1CN(c2ncnc3oc(-c4ccccc4)c(-c4ccccc4)c23)CC(C)N1 (configuration not stated)
R: c1ccc(-c2oc3ncnc(NCCc4ccccn4)c3c2-c2ccccc2)cc1
Ascending by pIC50, please. Thanks in advance for listing the labels in the requested order.
P, R, Q

----------
Target: Aurora kinase A (Homo sapiens) (UniProt O14965)
Sequence (O14965 whole entry): as above
Assay: Inhibition of Aurora A at 10 uM
observable: inhibition (%)

Can you look up the measured inhibition of "c1ccc(-c2oc3ncnc(NCCN4CCOCC4)c3c2-c2ccccc2)cc1" for me?
81.7

Can you look up the measured inhibition of "OCCNc1ncnc2oc(-c3ccccc3)c(-c3ccccc3)c12" for me?
98.2

Can you look up the measured inhibition of "OC1CCN(c2ncnc3oc(-c4ccccc4)c(-c4ccccc4)c23)CC1" for me?
85.8

Can you look up the measured inhibition of "c1ccc(-c2oc3ncnc(NCCc4c[nH]cn4)c3c2-c2ccccc2)cc1" for me?
91.4

Can you look up the measured inhibition of "c1ccc(-c2oc3ncnc(NCCCn4ccnc4)c3c2-c2ccccc2)cc1" for me?
73.8
